For each entry below, report its viability, T/C value.
- System: 997726-040-R-J2-PDC tumor spheroids, viability;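 further: spheroids exposed to compounds for seven days before readout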
- assay_comment: Anticancer human tumor 997726-040-R-J2-PDC patient-derived squamous cell lung carcinoma cell line growth inhibition [PI3K]
- run_parameters: second compound 10 µM; first compound 10 µM; hits give low values; spheroids with HUVEC and MSC
Field format: number, assumed %, no unit text.

input: What viability, T/C value was documented for this compound, CCCS(=O)(=O)Nc1ccc(F)c(C(=O)c2c[nH]c3ncc(-c4ccc(Cl)cc4)cc23)c1F + CC(Nc1ncnc2nc[nH]c12)c1cc2cccc(Cl)c2c(=O)n1-c1ccccc1 ?
output: 19.3

input: # viability, T/C lookup, item C[C@@H](NC(=O)c1ncnc(N)c1Cl)c1ncc(C(=O)Nc2cc(C(F)(F)F)c(Cl)cn2)s1 + Cc1nc(NC(=O)N2CCCC2C(N)=O)sc1-c1ccnc(C(C)(C)C(F)(F)F)c1
output: 8.61

input: Reported viability, T/C, compound C=CC(=O)N1CCN(c2nc(=O)n(-c3c(C)ccnc3C(C)C)c3nc(-c4c(O)cccc4F)c(F)cc23)C(C)C1 (stereo unspecified) + CC(Nc1ncnc2nc[nH]c12)c1cc2cccc(Cl)c2c(=O)n1-c1ccccc1 : ____
output: 68.8

input: I am curious: what viability, T/C value has been reported for C#Cc1c(F)ccc2cc(O)cc(-c3ncc4c(N5CC6CCC(C5)N6)nc(OCC56CCCN5CC(F)C6)nc4c3F)c12 (stereo unspecified) + Cc1nc(NC(=O)N2CCCC2C(N)=O)sc1-c1ccnc(C(C)(C)C(F)(F)F)c1 ?
output: 15.8

input: Suppose we examine the compound C[C@@H](NC(=O)c1ncnc(N)c1Cl)c1ncc(C(=O)Nc2cc(C(F)(F)F)c(Cl)cn2)s1 + CC(Nc1ncnc2nc[nH]c12)c1cc2cccc(Cl)c2c(=O)n1-c1ccccc1 ; what viability, T/C value has been reported?
output: 43.9

input: Given Cn1ncc(Cl)c1-c1cc(C(=O)NC(CN)Cc2cccc(F)c2)sc1Cl (stereo unspecified) + CC(Nc1ncnc2nc[nH]c12)c1cc2cccc(Cl)c2c(=O)n1-c1ccccc1 , state its recorded viability, T/C.
output: 9.74

input: # query: viability, T/C of entry CC(C)NCC(C(=O)N1CCN(c2ncnc3c2C(C)CC3O)CC1)c1ccc(Cl)cc1 (stereo unspecified) + Cc1nc(NC(=O)N2CCCC2C(N)=O)sc1-c1ccnc(C(C)(C)C(F)(F)F)c1
output: 3.36

input: Param item = C#Cc1c(F)ccc2cc(O)cc(-c3ncc4c(N5CC6CCC(C5)N6)nc(OCC56CCCN5CC(F)C6)nc4c3F)c12 (stereo unspecified) + CC(Nc1ncnc2nc[nH]c12)c1cc2cccc(Cl)c2c(=O)n1-c1ccccc1 ; retrieve measured viability, T/C.
output: 35.1

input: Data request, read-out viability, T/C, for CC(Cn1ccc(-c2ccc(C#N)c(Cl)c2)n1)NC(=O)c1cc(C(C)O)[nH]n1 (stereo unspecified) + CC(Nc1ncnc2nc[nH]c12)c1cc2cccc(Cl)c2c(=O)n1-c1ccccc1
output: 52.8

input: Consider the compound shown here: CNC(=O)c1ccc(N2C(=S)N(c3ccc(C#N)c(C(F)(F)F)c3)C(=O)C2(C)C)cc1F + Cc1nc(NC(=O)N2CCCC2C(N)=O)sc1-c1ccnc(C(C)(C)C(F)(F)F)c1 What is its recorded viability, T/C?
output: 9.07

input: Field request: viability, T/C | item: CC1(C)CCC(Nc2ncc(C(F)(F)F)c(-c3c[nH]c4c(P(C)(C)=O)c(C#N)ccc34)n2)CN1 (stereo unspecified) + CC(Nc1ncnc2nc[nH]c12)c1cc2cccc(Cl)c2c(=O)n1-c1ccccc1
output: 14.1
